- targetDesc: B-Raf (V600E) (Homo sapiens (Human), UniProt P15056, V600E)
- Sequence (P15056 whole entry V600E): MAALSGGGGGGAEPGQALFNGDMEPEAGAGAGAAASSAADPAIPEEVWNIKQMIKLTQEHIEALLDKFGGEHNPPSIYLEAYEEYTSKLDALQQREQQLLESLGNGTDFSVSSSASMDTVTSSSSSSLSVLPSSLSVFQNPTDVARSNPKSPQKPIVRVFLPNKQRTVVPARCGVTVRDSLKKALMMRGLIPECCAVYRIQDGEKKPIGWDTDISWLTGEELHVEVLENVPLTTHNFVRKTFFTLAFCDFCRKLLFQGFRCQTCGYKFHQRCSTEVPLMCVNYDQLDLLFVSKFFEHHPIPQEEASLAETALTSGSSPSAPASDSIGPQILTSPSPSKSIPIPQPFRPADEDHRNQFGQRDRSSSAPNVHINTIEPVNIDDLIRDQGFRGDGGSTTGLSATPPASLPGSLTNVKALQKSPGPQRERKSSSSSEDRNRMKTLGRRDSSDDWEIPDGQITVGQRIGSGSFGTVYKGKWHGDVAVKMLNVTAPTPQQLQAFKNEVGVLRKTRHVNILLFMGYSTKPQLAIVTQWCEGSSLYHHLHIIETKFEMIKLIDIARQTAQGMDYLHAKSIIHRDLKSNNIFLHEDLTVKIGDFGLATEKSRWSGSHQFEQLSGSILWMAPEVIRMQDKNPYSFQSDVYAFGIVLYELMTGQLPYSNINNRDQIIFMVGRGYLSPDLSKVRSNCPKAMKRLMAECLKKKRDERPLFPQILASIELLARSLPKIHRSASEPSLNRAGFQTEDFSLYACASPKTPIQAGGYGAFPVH
- assayExplanation: Raf kinase assay (B-Raf (V600E)), [33P] incorporation into MEK1(K97R)
- Type: biochemical
- Description: A. Raf Kinase Assays (B-Raf, B-raf (V600E), and C-Raf) Inhibition of kinase activity by test compound disclosed herein was estimated by quantifying the amount of [^33P] incorporation of substrate in the presence of test compound. […] Reactions were incubated at 30° C. for 30 min and stopped by adding 3% phosphoric acid, harvested onto a 96-well GF/B UniFilter (PerkinElmer) using a unifilter harvester (PerkinElmer), and counted with a TopCount microplate scintillation counter (PerkinElmer). […]
assayEndpoint: IC50 (nM)

Consider the worked cases shown below.
COc1ccc(-c2ccc3ncnc(Nc4cccc5[nH]ncc45)c3c2)cc1OC; 259
COc1cc(-c2ccc3ncnc(Nc4cc(NS(C)(=O)=O)ccc4F)c3c2)ccc1O; 270
COc1cc(-c2ccc3ncnc(Nc4ccc(O)cc4)c3c2)ccc1O; 522
COc1cccc(-c2ccc3nccc(Nc4cccc5[nH]ncc45)c3c2)c1 [Compound 146]; 426

[a] Oc1ccc(-c2ccc3ncnc(Nc4cccc(O)c4)c3c2)cc1
[b] COc1cc(-c2ccc3ncnc(Nc4ccc(F)cc4F)c3c2)ccc1O
[c] COc1ccc(-c2ccc3nccc(Nc4cccc5[nH]ncc45)c3c2)cc1C=O
*Q* Please list the entries, largest IC50 first. Use the labels to give the requested order.
*A* b, c, a

[1] COc1cc(-c2ccc3ncnc(Nc4ccccc4)c3c2)ccc1O
[2] COc1cc(-c2ccc3ncnc(Nc4ccc(F)c(O)c4)c3c2)ccc1O
[3] COc1ccc(-c2ccc3ncnc(Oc4cccc(O)c4)c3c2)cc1
[4] NC(=O)c1cccc(-c2ccc3nccc(Nc4cccc5[nH]ncc45)c3c2)c1
[5] CCS(=O)(=O)Nc1ccc(-c2ccc3ncnc(Nc4ccccc4)c3c2)cc1
*Q* Order each entry by recorded IC50, climbing from the minimum. Give your ranking as a list of the labels in the requested order.
*A* 2, 4, 3, 1, 5
(2: 23.4 nM, 4: 114 nM, 3: 198 nM, 1: 760 nM, 5: 1810 nM)

[I] COc1ccc(-c2ccc3nccc(Nc4cccc5[nH]ncc45)c3c2)cc1Cl
[II] Oc1ccc(-c2ccc3ncnc(Nc4cccc5[nH]ncc45)c3c2)cc1
[III] COc1ccc(Nc2ncnc3ccc(-c4ccc(O)c(OC)c4)cc23)cc1O
[IV] COc1cc(-c2ccc3ncnc(Nc4ccc5cn[nH]c5c4)c3c2)ccc1O
*Q* With regard to IC50, arrange the entries in ascending order, please. List the labels according to the requested ordering.
*A* I, II, III, IV

[1] COc1cc(-c2ccc3ncnc(Nc4ccc(Cl)cc4F)c3c2)ccc1O
[2] COc1cc(-c2cc3c(Nc4ccc(C)c(O)c4)ncnc3cc2OC)ccc1O
*Q* Return label of the item with the larger IC50. Candidates: 1 , 2 . Let me know the label of the one you choose.
*A* 1
(1: 810 nM, 2: 349 nM)
